This listing pairs compounds with measured Ki.
- experimental.system: serotonin transporter (Rattus norvegicus, UniProt P31652)
- Construct: frontal cortical membranes prepared from male Sprague-Dawley rats; from tissue; host or cells: rat frontal cortex membranes
- Sequence (P31652 whole entry): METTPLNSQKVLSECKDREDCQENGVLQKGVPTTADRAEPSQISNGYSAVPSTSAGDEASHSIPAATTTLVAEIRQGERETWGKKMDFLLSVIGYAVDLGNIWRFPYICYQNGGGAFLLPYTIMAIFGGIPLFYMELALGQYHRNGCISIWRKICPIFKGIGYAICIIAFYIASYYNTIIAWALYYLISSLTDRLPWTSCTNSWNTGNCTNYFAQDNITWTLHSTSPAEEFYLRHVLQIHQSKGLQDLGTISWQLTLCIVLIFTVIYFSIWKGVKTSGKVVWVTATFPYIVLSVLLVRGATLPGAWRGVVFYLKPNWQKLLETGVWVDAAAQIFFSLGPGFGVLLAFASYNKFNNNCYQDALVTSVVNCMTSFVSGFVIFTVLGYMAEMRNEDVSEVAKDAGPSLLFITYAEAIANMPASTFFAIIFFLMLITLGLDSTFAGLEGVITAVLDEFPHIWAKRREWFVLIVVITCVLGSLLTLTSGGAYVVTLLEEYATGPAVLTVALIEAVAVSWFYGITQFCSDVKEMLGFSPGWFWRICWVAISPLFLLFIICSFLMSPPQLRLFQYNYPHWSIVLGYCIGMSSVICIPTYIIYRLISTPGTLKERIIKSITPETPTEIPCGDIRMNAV
- procedure.summary: serotonin transporter affinity, 3H-paroxetine binding, frontal cortical membranes
- study.conditions: 3H-paroxetine 0.1 nM; read-out: ST (Ki, nM,)
Provide the reading as a plain figure in nM.

Past entries and their recorded results:
Cn1cc([C@H]2CC[C@@H](N3CCN(c4cccc5cccnc45)CC3)CC2)c2cc(F)ccc21; 2.02
Fc1ccc2c(c1)[nH]cc2[C@H]1CC[C@@H](N2CCN(c3cccc4c3OCCO4)CC2)CC1 [Example 25a]; 63
Fc1ccc2[nH]cc([C@H]3CC[C@H](N4CCN(c5cccc6c5OCCO6)CC4)CC3)c2c1 [Example 24b]; 36
Fc1ccc2c(c1)[nH]cc2[C@H]1CC[C@H](N2CCN(c3cccc4c3OCCO4)CC2)CC1 [Example 25b]; 58
Cn1cc([C@H]2CC[C@@H](N3CCN(c4cccc5[nH]ccc45)CC3)CC2)c2cc(F)ccc21; 7.22

## Input Item N#Cc1ccc2[nH]cc([C@H]3CC[C@@H](N4CCN(c5cccc6ccoc56)CC4)CC3)c2c1 [Example 34a] has what recorded Ki?
## Output 1.49

## Input Recorded Ki for Fc1ccc2[nH]cc([C@H]3CC[C@@H](N4CCN(c5cccc6c5OCCO6)CC4)CC3)c2c1 [Example 24a] , please?
## Output 6.9
